# assayed target: T1, HLA-B*2705 heavy chain with human beta 2 microglobulin on splenocytes of HLA-B27/hb2m transgenic mice (human)
# T1 construct: whole, on cells; also called TG; HLA-B*27+ transgenic splenocytes
# assay protocol: flow cytometry, HLA-B27/hb2m transgenic mouse splenocytes, antibody 0.1 ug/ml
assay readout: MFI (MFI)
State the answer as a number, implicitly in MFI.

binder	MFI [MFI]
H4H2480N (antibody, V domains shown) VH: QVQLQQWGAGLLKPSETLSLTCAVYGGSFSGYYWSWIRQTPGKGLEWIGEISHSGNNNYNPSLKSRVTMSKDTSKNQFSLKLSSVTAADTAVYYCARIQLWLRGNDYYGMDVWGQGITVTVSS VL: DIQMTQSPSSLSASVGDRVTITCRASQGIRNDLGWYQQKPGKAPKRLIYAASSLQGGVPSRFSGSGSGTEFTLTISSLQPEDFATYYCLQHNSYPWTFGQGTKVEIK	86.4
H4H2560P (antibody, V domains shown) VH: QVQLVQSGAEVKKPGASVKVSCKASGYTFTGYFIHWVRQAPGQGLEWVGWINPTSGGTNYAQKFQGRVTMTRDTSISTAYMEMNSLRSDDTAVYYCARKAGYTSTWFDYWGQGTTVTVSS VL: DIVMTQSPDSLTVSLGERATINCKSSQSVLYSSKNKNYLAWYQQKPGQPPNLLVYWASTRESGVPDRFSGSGSGTDFTLTISSLQAEDVAVYYCQQYYSMITFGQGTRLEIK	72.2
H4H2477N2 (antibody, V domains shown) VH: QVQLQQWGAGLLKPSETLSLTCAVYGGSFSDYYWSWIRQPPGKGLEWIGEINHRGNTNYNPSLKSRVTISVDTSKNQFSLKLRSVTAADMAVYYCARIQLWLRGYDYYGMDVWGQGTTVTVSS VL: DIQMTQSPSSLSASVGDRVTITCRASQGIRNDLGWYQQKPGKAPKRLIYAASSLQGGVPSRFSGSGSGTEFSLTISSLQPEDFASYYCLQHNTYPWTFGQGTKVEIK	107
H4H2526P (antibody, V domains shown) VH: QVQLVESGGGVVQPGRSLRLSCAASGFTFSRFGMDWVRQAPGKGLEWVAVISYDGKNKLYADSVKGRFTISRDNSKNTLYMQMNSLRAEDTAVYYCAKEGDNWNFVGDSWGQGTLVTVSS VL: DIQMTQSPSSVSASVGDRVTITCRASQDISARLAWYQQKPGKAPKLLIYAASSLQSGVPSRFSGSGSGTDFTLTISSLEPEDFATYYCQQADSFPYTLGQGTKLEIK	86.7

Let us examine a further case.
Query block: May I ask what MFI has been recorded for H4H2528P (antibody, V domains shown) VH: QVQLVESGGGVVQPGRSLRLSCAASGFTFSRFGMDWVRQAPGKGLEWVAVISYDGKNKLYADSVKGRFTISRDNSKNTLYLQMNSLRAEDTAVYYCAKEGDNWNFVGDSWGQGTLVTVSS VL: DIQMTQSPSSVSASVGDRVTITCRASQGISARLAWYQQKPGKAPKLLIYAASSLQSGVPSRFSGSGSGTYFTLTISNLQPEDFATYYCQQANSFPYTLGQGTKLEIK ?
Result block: 99.7
